Cited source for all entries: the supplement of paper PMC10724198

Tested on: Saccharomyces cerevisiae
assay protocol: protein stability index of tFT-peptide fusion (C-terminal peptide) (PSI (0-1 scale)); higher = more stable (slower turnover);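 further: PSI is a weighted mean of sequencing reads over stability bins, variants kept only with over 10 reads, mCherry proximal and sfGFP distal, peptide attached via GGGS linker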
setup conditions: genetic background: doa10 deletion; temperature: 30 C
Use met when the recorded protein stability index is no lower than 0.3; use not met when it is lower.

Could you tell me if the measured protein stability index of "LFLVFIGLFFLT" reaches 0.3 or more?
met

Could you tell me if the measured protein stability index of "GVGAISLGFSWL" reaches 0.3 or more?
met

Could you tell me if the measured protein stability index of "SVQICGFWLILG" reaches 0.3 or more?
met

Could you tell me if the measured protein stability index of "LVVGCFLTFCFG" reaches 0.3 or more?
not met

Could you tell me if the measured protein stability index of "PTFSPSLPPPRS" reaches 0.3 or more?
met

Could you tell me if the measured protein stability index of "INGINHKIIKIV" reaches 0.3 or more?
not met

Could you tell me if the measured protein stability index of "RYVVVGACIQVV" reaches 0.3 or more?
not met

Could you tell me if the measured protein stability index of "GWLRHGWWRTVG" reaches 0.3 or more?
not met

Could you tell me if the measured protein stability index of "VCIPLLVIRFLV" reaches 0.3 or more?
not met

Could you tell me if the measured protein stability index of "YYLHFRFFIYVF" reaches 0.3 or more?
not met

Could you tell me if the measured protein stability index of "LVVFLRFFLRVL" reaches 0.3 or more?
not met

Could you tell me if the measured protein stability index of "LCVFFRCFFVGG" reaches 0.3 or more?
met

Could you tell me if the measured protein stability index of "VVRVSFSFCLSC" reaches 0.3 or more?
met

Could you tell me if the measured protein stability index of "MALAVRVVVCGA" reaches 0.3 or more?
not met

Could you tell me if the measured protein stability index of "WFYLLFVLFGLV" reaches 0.3 or more?
met

Could you tell me if the measured protein stability index of "LGVLVVCFNATY" reaches 0.3 or more?
not met

Could you tell me if the measured protein stability index of "VPPLPPPGPPTF" reaches 0.3 or more?
met

Could you tell me if the measured protein stability index of "LLFVLWLSFFVL" reaches 0.3 or more?
not met

Could you tell me if the measured protein stability index of "SFTRYIFFLMFF" reaches 0.3 or more?
met

Could you tell me if the measured protein stability index of "RHIRGLNLIKLI" reaches 0.3 or more?
not met

Could you tell me if the measured protein stability index of "DALHPCIIYLTC" reaches 0.3 or more?
not met

Could you tell me if the measured protein stability index of "CVVLCLFCWCML" reaches 0.3 or more?
met

Could you tell me if the measured protein stability index of "LGKSTLYMALNN" reaches 0.3 or more?
not met

Could you tell me if the measured protein stability index of "RGAVRVAWYPVL" reaches 0.3 or more?
met

Could you tell me if the measured protein stability index of "GYVVYRRYILIR" reaches 0.3 or more?
not met

Could you tell me if the measured protein stability index of "YGAGDLTKYFIV" reaches 0.3 or more?
not met

Could you tell me if the measured protein stability index of "ALEIIRLSHRLC" reaches 0.3 or more?
not met

Could you tell me if the measured protein stability index of "LDRLTTWTLIVR" reaches 0.3 or more?
met

Could you tell me if the measured protein stability index of "SVGWGFWARFIG" reaches 0.3 or more?
not met

Could you tell me if the measured protein stability index of "CSAVYNLHLLYS" reaches 0.3 or more?
met

Could you tell me if the measured protein stability index of "IIAVFRCCLRVY" reaches 0.3 or more?
not met

Could you tell me if the measured protein stability index of "LFFWWVAVVFRV" reaches 0.3 or more?
not met

Could you tell me if the measured protein stability index of "CCGWSGCVSGVL" reaches 0.3 or more?
met

Could you tell me if the measured protein stability index of "LLPSNFLLLVGV" reaches 0.3 or more?
not met

Could you tell me if the measured protein stability index of "KLMGWFVGVVAR" reaches 0.3 or more?
met

Could you tell me if the measured protein stability index of "RSRNSEYILVYN" reaches 0.3 or more?
met

Could you tell me if the measured protein stability index of "GFVLMLLVRFEL" reaches 0.3 or more?
met

Could you tell me if the measured protein stability index of "FRYLRPAFLLLH" reaches 0.3 or more?
not met

---

Tested on: Saccharomyces cerevisiae
assay protocol: protein stability index of tFT-peptide fusion (C-terminal peptide) (PSI (0-1 scale)); higher = more stable (slower turnover)
setup conditions: genetic background: cdc53-1; temperature: 37 C
Assignment: determine reported protein stability index for the given sequences.

# get_value(readout='protein stability index', item= "LCLLIHFWISHL" )
0.44

# get_value(readout='protein stability index', item= "LRLFIFLLFSVF" )
0.282

# get_value(readout='protein stability index', item= "YHFRLLVTCCPC" )
0.325

# get_value(readout='protein stability index', item= "VFTGYSAFLLLC" )
0.578

# get_value(readout='protein stability index', item= "MSCILFCCLVPF" )
0.57

# get_value(readout='protein stability index', item= "FLAFLEPRVCCA" )
0.231

# get_value(readout='protein stability index', item= "RGWWWFVVVLCR" )
0.139

# get_value(readout='protein stability index', item= "WFYLLFVLFGLV" )
0.614

# get_value(readout='protein stability index', item= "RLFYRLSFVYFL" )
0.447

# get_value(readout='protein stability index', item= "GGVWVLGVAVVW" )
0.132

# get_value(readout='protein stability index', item= "GSVLWISCLIFC" )
0.267

# get_value(readout='protein stability index', item= "RGGPPPCPLLAA" )
0.698

# get_value(readout='protein stability index', item= "LSRLWVVGWVVA" )
0.472

# get_value(readout='protein stability index', item= "SWGRGADRWRRA" )
0.722

# get_value(readout='protein stability index', item= "FFCCFVFVLGFC" )
0.443

# get_value(readout='protein stability index', item= "PTFSPSLPPPRS" )
0.715

# get_value(readout='protein stability index', item= "ESVPLLIVLHLV" )
0.62

# get_value(readout='protein stability index', item= "PVTAVYFVLYIW" )
0.231

# get_value(readout='protein stability index', item= "RILFSPSTFYLF" )
0.761

---

Test system: Saccharomyces cerevisiae
assay protocol: protein stability index of tFT-peptide fusion (C-terminal peptide) (PSI (0-1 scale)); higher = more stable (slower turnover)
setup conditions: genetic background: wild type; temperature: 37 C
Use Met when the recorded protein stability index is no lower than 0.4; use Not met when it is lower.

Could you tell me if the measured protein stability index of "FVLLCVLEFVAG" reaches 0.4 or more?
Not met

Could you tell me if the measured protein stability index of "WFLVLLFFWFLL" reaches 0.4 or more?
Met

Could you tell me if the measured protein stability index of "GAFAGDVWRCVV" reaches 0.4 or more?
Not met

Could you tell me if the measured protein stability index of "GLGWLLFVVERV" reaches 0.4 or more?
Met

Could you tell me if the measured protein stability index of "YDLRRIGRIGVG" reaches 0.4 or more?
Not met

Could you tell me if the measured protein stability index of "SSGIGLFVWVYG" reaches 0.4 or more?
Met

Could you tell me if the measured protein stability index of "DRYSFYGYVVVL" reaches 0.4 or more?
Not met

Could you tell me if the measured protein stability index of "VARRRQQWMRGS" reaches 0.4 or more?
Met

Could you tell me if the measured protein stability index of "TLVFPRFLFLVV" reaches 0.4 or more?
Met

Could you tell me if the measured protein stability index of "SDAIKITFIIHN" reaches 0.4 or more?
Met

---

Assignment: determine reported protein stability index for the given sequences.
Tested on: Saccharomyces cerevisiae
assay protocol: protein stability index of tFT-peptide fusion (C-terminal peptide) (PSI (0-1 scale)); higher = more stable (slower turnover)
setup conditions: genetic background: wild type; temperature: 30 C

Value wanted: protein stability index (Saccharomyces cerevisiae) of entry "GWDRDQKPENKE"
0.738

Value wanted: protein stability index (Saccharomyces cerevisiae) of entry "PLPPPPRPPPNP"
0.665

Value wanted: protein stability index (Saccharomyces cerevisiae) of entry "LRRVKSGPYFRF"
0.684

Value wanted: protein stability index (Saccharomyces cerevisiae) of entry "IGMICYGKDTQY"
0.726

Value wanted: protein stability index (Saccharomyces cerevisiae) of entry "LRPVPLCPAALL"
0.695

Value wanted: protein stability index (Saccharomyces cerevisiae) of entry "FRLLLLKIKSEQ"
0.619

Value wanted: protein stability index (Saccharomyces cerevisiae) of entry "SRRDRGHWSVRS"
0.62

Value wanted: protein stability index (Saccharomyces cerevisiae) of entry "RVTPGLSIFFWP"
0.729

Value wanted: protein stability index (Saccharomyces cerevisiae) of entry "LGLCSFGCERCH"
0.704

Value wanted: protein stability index (Saccharomyces cerevisiae) of entry "ARSDSPRATQAN"
0.697

Value wanted: protein stability index (Saccharomyces cerevisiae) of entry "VSGLRRLVAFAR"
0.518

Value wanted: protein stability index (Saccharomyces cerevisiae) of entry "YFFECFKECREQ"
0.749

Value wanted: protein stability index (Saccharomyces cerevisiae) of entry "LGRPRRGGGVSG"
0.7

Value wanted: protein stability index (Saccharomyces cerevisiae) of entry "NRGPPNMRQITP"
0.712

Value wanted: protein stability index (Saccharomyces cerevisiae) of entry "VRWGVVGVQGNW"
0.678

Value wanted: protein stability index (Saccharomyces cerevisiae) of entry "SGVRSPALLGRC"
0.68

Value wanted: protein stability index (Saccharomyces cerevisiae) of entry "APTVPQILVRHA"
0.674

Value wanted: protein stability index (Saccharomyces cerevisiae) of entry "PPAPLPAPRLAL"
0.709

Value wanted: protein stability index (Saccharomyces cerevisiae) of entry "AGWCWVWGVELV"
0.687
